Test system: Aβ42
Experiment: Aβ42 release from HEK cells stably expressing APPswe (MSD electrochemiluminescence)
Type: cell-based, Human
Conditions: HEK cells expressing APPswe; 4-6 h incubation with test compound; Aβ42 secreted to cell medium
Experimental: The level of activity of the compounds on Aβ formation was tested using the following method: Compounds were diluted in 100% DMSO and stored at 20° C. prior to use. […] After incubation with test compound the amount of Aβ peptides, including Aβ42, Aβ40, Aβ39, Aβ38 and Aβ37, as well as total Aβ levels, secreted to cell medium was analyzed using the electrochemiluminescence assay technology from Meso Scale Discovery (MSD), in combination with specific antibodies raised against the different Aβ peptides. […]
measured.parameter: IC50

compound="COc1nc(Nc2cc(C)c3c(n2)OC(C2CCCO2)CN(C)C3)ccc1-c1cnn(C)c1 (single isomer, unassigned)" assay_value="0.056 µM"
compound="COc1nc(Nc2ccc3c(n2)OC(CCC(F)(F)F)CN(C)C3)ccc1-c1cnn(C)c1 (single isomer, unassigned; (-)) [Example 58]" assay_value="0.018 µM"
compound="COc1nc(Nc2ccc3c(n2)OC(CC(F)(F)F)CN(C)C3)ccc1-c1ccc(=O)n(C)c1 (single isomer, unassigned)" assay_value="0.374 µM"
compound="COc1nc(Nc2ccc3c(n2)OC(CC(F)(F)F)CN(C)C3C)ccc1-c1cnn(C)c1 (single isomer, unassigned) [Example 36]" assay_value="0.012 µM"
compound="COc1nc(Nc2ccc3c(n2)OC(CC(CF)CF)CN(C)C3)ccc1-n1cnc(C)c1 (single isomer, unassigned; (-))" assay_value="0.009 µM"
compound="COc1nc(Nc2ccc3c(n2)OC(c2nc(C)cs2)C(C)N(C)C3)ccc1-c1cnn(C)c1 (single isomer, unassigned) [Example 30]" assay_value="0.007 µM"

Continue with the next compound.
GET /value?item= COc1nc(Nc2ccc3c(n2)OC(CCC(F)(F)F)CN(C)C3)ccc1-c1cnn(C)c1 (single isomer, unassigned; (+)) [Example 57] &field=IC50 returns 0.005 µM
